All figures here come from ChEMBL document CHEMBL1128362.

tested-on: Adenosine receptor A2a (Rattus norvegicus) (UniProt P30543)
experiment-description: Binding affinity against Adenosine A2A receptor from rat brain
Design: concentration or dose not given beside the values
study-conditions: concentration not given here
measured-endpoint: inhibition (%)
Field: numeric (%). Do not append units.

Below, each entry is followed by its recorded inhibition result.
>  <molecule>
CC(C)[Si]1(C(C)C)OC[C@H]2O[C@@H](n3cnc4c(NCc5cccc(I)c5)nc(Cl)nc43)[C@H](O)[C@@H]2O[Si](C(C)C)(C(C)C)O1

>  <inhibition, %>
18

$$$$
>  <molecule>
O=C(O)Cn1cnc2c(NCc3cccc(I)c3)ncnc21

>  <inhibition, %>
9

$$$$
>  <molecule>
CCCCCC[C@@H]([C@@H](C)O)n1cnc2c(N)ncnc21

>  <inhibition, %>
60

$$$$
>  <molecule>
CNC(=O)[C@@H]1C[C@H](N)[C@H](n2cnc3c(NCc4cccc(I)c4)nc(Cl)nc32)O1

>  <inhibition, %>
2

$$$$
>  <molecule>
CNC(=O)C1OC(n2cnc3c(NC(=O)c4cccc(I)c4)nc(Cl)nc32)C(OC(=O)c2ccccc2)C1OC(=O)c1ccccc1 (stereo unspecified)

>  <inhibition, %>
7

$$$$

# evaluate next
**Query** Fill in the blank: the reported inhibition of CNC(=O)[C@H]1C[C@@H](n2cnc3c(NCc4cccc(I)c4)ncnc32)[C@H](O)[C@@H]1O is ____.
**Result** 28.5

###

tested-on: Adenosine receptor A1 (Rattus norvegicus)
Sequence (P25099 whole entry): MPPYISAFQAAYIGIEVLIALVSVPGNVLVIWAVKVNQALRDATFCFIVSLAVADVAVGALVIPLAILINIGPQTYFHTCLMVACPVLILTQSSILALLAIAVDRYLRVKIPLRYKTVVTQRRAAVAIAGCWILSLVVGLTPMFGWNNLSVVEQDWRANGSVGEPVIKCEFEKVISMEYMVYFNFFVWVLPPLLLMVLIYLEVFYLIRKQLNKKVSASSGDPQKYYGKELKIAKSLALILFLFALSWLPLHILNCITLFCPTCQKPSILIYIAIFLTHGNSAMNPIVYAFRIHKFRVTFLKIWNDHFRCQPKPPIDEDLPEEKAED
# Ki per entry
The figure you give is taken to be in µM; do not add the unit.

**Query** Provide value of Ki for this record tested with Adenosine receptor A1 (Rattus norvegicus): CNC(=O)[C@@H]1C[C@@H](F)[C@H](n2cnc3c(NCc4cccc(I)c4)nc(Cl)nc32)O1
**Result** 1.42

**Query** # value lookup — system Adenosine receptor A1 (Rattus norvegicus), readout Ki, item CC(O)[C@@H]1O[C@@H](n2cnc3c(N)ncnc32)[C@H](O)[C@@H]1O (stereo partly drawn)
**Result** 150

**Query** For the record CNC(=O)[C@H]1C[C@@H](n2cnc3c(NCc4cccc(I)c4)ncnc32)[C@H](O)[C@@H]1O , what value of Ki is listed for Adenosine receptor A1 (Rattus norvegicus)?
**Result** 35.9

###

Let's go through some recorded Ki values for Adenosine receptor A3 (Rattus norvegicus, UniProt P28647) together.
The answer should read as a number with its unit following.

>  <compound>
CNC(=O)[C@@H]1C[C@@H](F)[C@H](n2cnc3c(NCc4cccc(I)c4)nc(Cl)nc32)O1

>  <tested-on>
Adenosine receptor A3 (Rattus norvegicus, UniProt P28647)

>  <measured-endpoint>
Ki

>  <value-observed>
17.8 µM

$$$$

Turning now to a further record.
**Query** Adenosine receptor A3 (Rattus norvegicus, UniProt P28647) / Ki / Cn1cnc2c(NC3CCCC3)ncnc21 : value?
**Result** 1330 µM

###

Property: inhibition; scope: individual compounds
tested-on: Adenosine receptor A3 (Rattus norvegicus) (UniProt P28647)
Sequence (whole entry): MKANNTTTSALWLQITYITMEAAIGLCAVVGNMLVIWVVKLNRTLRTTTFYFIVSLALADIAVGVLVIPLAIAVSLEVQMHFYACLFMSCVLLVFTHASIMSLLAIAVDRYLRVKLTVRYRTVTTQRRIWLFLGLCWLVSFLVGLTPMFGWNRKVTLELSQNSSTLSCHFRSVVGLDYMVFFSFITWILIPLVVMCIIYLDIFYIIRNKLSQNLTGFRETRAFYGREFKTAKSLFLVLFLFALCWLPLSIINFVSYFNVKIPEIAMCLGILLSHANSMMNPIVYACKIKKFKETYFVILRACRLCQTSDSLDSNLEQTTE
experiment-description: Ability to inhibit the adenylyl cyclase in CHO cells stably transfected with rat Adenosine A3 receptor at the concentration of 40(uM)
Assay type: cell-based
Note to self: number, then unit, no commentary.

>  <compound>
CC(O)[C@@H]1O[C@@H](n2cnc3c(N)ncnc32)[C@H](O)[C@@H]1O (some centres undefined)

>  <measured-endpoint>
inhibition

>  <value-observed>
0%

$$$$

**Query** Find the recorded inhibition belonging to Nc1nc(Cl)nc2c1ncn2[C@@H]1O[C@H](CO)[C@@H](O)[C@@H]1O and report it.
**Result** 16.1%

**Query** Dear colleague, I am looking for the recorded inhibition of the following compound: CCCCCC[C@@H]([C@@H](C)O)n1cnc2c(N)ncnc21
**Result** 5.9%

**Query** What value of measured inhibition is listed for CNC(=O)[C@@H]1C[C@@H](O)[C@H](n2cnc3c(NCc4cccc(I)c4)nc(Cl)nc32)O1 ?
**Result** 35.2%

###

tested-on: Adenosine receptor A3 (Rattus norvegicus) (UniProt P28647)
experiment-description: Ratio of the concentration (100 uM) effecting adenylyl cyclase and binding affinity against rat brain A3 receptors.
Answer n if Ratio is under 300, and y if it is 300 or more.

As a guide, the following entries are already answered.
>  <compound>
CNC(=O)[C@@H]1C[C@@H](F)[C@H](n2cnc3c(NCc4cccc(I)c4)nc(Cl)nc32)O1

>  <tested-on>
Adenosine receptor A3 (Rattus norvegicus) (UniProt P28647)

>  <class>
n

$$$$
>  <compound>
CNC(=O)[C@@H]1C[C@@H](O)[C@H](n2cnc3c(NCc4cccc(I)c4)nc(Cl)nc32)O1

>  <tested-on>
Adenosine receptor A3 (Rattus norvegicus) (UniProt P28647)

>  <class>
y

$$$$
>  <compound>
CNC(=O)[C@H]1O[C@@H](n2cnc3c(NCc4cccc(I)c4)nc(Cl)nc32)[C@@H]2OC(=S)O[C@@H]21

>  <tested-on>
Adenosine receptor A3 (Rattus norvegicus) (UniProt P28647)

>  <class>
y

$$$$
>  <compound>
CNC(=O)[C@@H]1C[C@H](N=[N+]=[N-])[C@H](n2cnc3c(NCc4cccc(I)c4)nc(Cl)nc32)O1

>  <tested-on>
Adenosine receptor A3 (Rattus norvegicus) (UniProt P28647)

>  <class>
n

$$$$
>  <compound>
CSc1nc(NCc2cccc(I)c2)c2ncn(C)c2n1

>  <tested-on>
Adenosine receptor A3 (Rattus norvegicus) (UniProt P28647)

>  <class>
y

$$$$

Lab note: next compound to report on.
**Query** Evaluate CC(C)[Si]1(C(C)C)OC[C@H]2O[C@@H](n3cnc4c(NCc5cccc(I)c5)nc(Cl)nc43)[C@H](O)[C@@H]2O[Si](C(C)C)(C(C)C)O1 : Ratio at minimum 300?
**Result** n

###

Entries with reported pKi on Adenosine receptor A2a (Rattus norvegicus)
Sequence (P30543 whole entry): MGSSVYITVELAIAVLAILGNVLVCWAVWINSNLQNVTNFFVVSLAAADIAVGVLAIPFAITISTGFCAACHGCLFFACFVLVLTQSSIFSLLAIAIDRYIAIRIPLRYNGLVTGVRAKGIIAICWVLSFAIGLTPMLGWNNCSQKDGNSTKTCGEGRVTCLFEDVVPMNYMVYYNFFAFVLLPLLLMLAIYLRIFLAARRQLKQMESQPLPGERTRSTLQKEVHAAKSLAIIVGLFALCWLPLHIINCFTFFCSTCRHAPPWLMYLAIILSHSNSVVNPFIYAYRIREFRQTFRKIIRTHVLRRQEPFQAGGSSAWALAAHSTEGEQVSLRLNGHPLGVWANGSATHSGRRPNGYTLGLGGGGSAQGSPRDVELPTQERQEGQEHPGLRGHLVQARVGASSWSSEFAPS
# pKi is unitless: minus log10 of the molar concentration; print number only

>  <compound>
CNC(=O)[C@@H]1C[C@@H](F)[C@H](n2cnc3c(NCc4cccc(I)c4)nc(Cl)nc32)O1

>  <tested-on>
Adenosine receptor A2a (Rattus norvegicus)

>  <pKi>
4.01

$$$$

// moving on: another record for pKi
**Query** Name the reported pKi value associated with the compound Cn1cnc2c(NC3CCCC3)ncnc21
**Result** 4.96

###

Collected Ratio values appear next to each entry.
tested-on: Adenosine receptors; A1 & A3 (Rattus norvegicus) (UniProt P25099+P28647)
experiment-description: Ratio of the binding affinities against rat brain A1 and A3 receptors, KiA1/KiA3.

**Query** Record request: Ratio value, item CC(O)[C@@H]1O[C@@H](n2cnc3c(N)ncnc32)[C@H](O)[C@@H]1O (stereo partly drawn)
**Result** < 1

**Query** For CCn1cnc2c(NC3CCCC3)ncnc21 , what is its reported Ratio?
**Result** < 1

**Query** Record request: Ratio value, item CN(C)c1nc(NCc2cccc(I)c2)c2ncn(C)c2n1
**Result** 0.099
